# Tested on: Target C
# protocol summary: RT-qPCR canonical junction panel assay, Target C mRNA
# Type: cell-based
# experimental parameters: Table 4, read-out: Target C IC50 (decrease in CJ mRNA levels)
pIC50: −log10 of the molar value.
measurement type: pIC50

compound	measured value
Cc1c(O)c(-c2ccc3nc(N4CC[C@@H](NCC5CC5)C4)ccc3n2)cc2cn(C)nc12 (single isomer, unassigned)	> 7.00
Cc1c(O)c(-c2nc(C(=O)NC(C)C)c3cc(N4C[C@@H](C)N[C@@H](C)C4)ccc3n2)cc2cn(C)nc12	6.00 to 7.00
CNC(=O)c1nc(-c2cc3cn(C)nc3c(F)c2O)nc2ccc(N3CC[C@@H](NC)C3)cc12	> 7.00
Cn1cc2cc(-c3ccc4nc(N5CCC(NC(C)(C)C)C5)ncc4n3)c(O)cc2n1 (stereo not drawn)	> 7.00
Cc1cc(-c2ccc3nc(N4CCC(NC(C)(C)C)C4)ccc3n2)nc2cn(C)nc12 (stereo not drawn)	5.00 to 6.00
Cc1c(O)c(-c2ncc3nc(C4CCNCC4)ccc3n2)cc2cn(C)nc12	5.00 to 6.00
CNC(=O)c1nc(-c2cc3cn(C)nc3c(C)c2O)nc2ccc(N3CCNCC3)nc12	< 5.00
CC(C)(C)NC1CCN(c2ccc3nc(-c4cc5oc(CO)nc5cc4O)ccc3n2)C1 (stereo not drawn)	6.00 to 7.00
CNC(=O)c1nc(-c2cc3cn(C)nc3c(C)c2O)nc2ccc(N3C[C@H](C)N[C@@H](C)C3)cc12	< 5.00
C[C@@H]1CN(c2ccc3nc(-c4cc5cn(C)nc5cc4O)ncc3c2)CC2(CC2)N1 (single isomer, unassigned)	< 5.00
Cc1nc2c(F)c(O)c(-c3ccc4nc(N5CC[C@@H](NC6(CF)CC6)C5)ccc4n3)cc2o1 (single isomer, unassigned) [Compound 491]	> 7.00
Cc1nc2c(F)c(O)c(-c3ccc4nc(N5CC[C@@H](NC6(CF)CC6)C5)ccc4n3)cc2o1 (single isomer, unassigned) [Compound 372]	> 7.00
Cc1nc2cc(O)c(-c3ccc4nc(N5CCN[C@@H](C(C)C)C5)ccc4n3)cc2o1	5.00 to 6.00
Cc1nc(-c2cc(F)c3nn(C)cc3c2)nc2ccc(N3CCC(N4CCC4)CC3)cc12	5.00 to 6.00
COc1cc(-c2ncc3cc(N4C[C@H](C)N[C@@H](C)C4)ccc3n2)cn2cc(C)nc12	< 5.00
C[C@H]1CN(c2cc(F)c3nc(-c4cc5cn(C)nc5cc4O)ccc3c2)C[C@H](C)N1 (single isomer, unassigned)	6.00 to 7.00
Cc1cn2cc(-c3ccc4cc(N5C[C@H](C)N[C@@H](C)C5)cc(F)c4n3)cc(F)c2n1 (single isomer, unassigned) [Compound 705, 2,2,2-trifluoroacetate]	6.00 to 7.00
Cc1c(O)c(-c2ccc3nc(N4CC[C@H](NC5CCC5)C4)ccc3n2)cc2cn(C)nc12 (single isomer, unassigned)	> 7.00
Cc1nc2c(C)c(O)c(-c3ccc4nc(N5CC[C@@H](NC(C)C)C5)ccc4n3)cc2o1 (single isomer, unassigned)	> 7.00
Cc1nc2cc(O)c(-c3ccc4nc(N5CCC(NCC6CC6)C5)ccc4n3)cc2o1 (single isomer, unassigned) [Compound 291]	6.00 to 7.00
Cc1nc2c(F)c(O)c(-c3ccc4nc(N5CC[C@@H](NCC6CC6)C5)ccc4n3)cc2o1 (single isomer, unassigned)	> 7.00
Cc1c(O)c(-c2nc(C(N)=O)c3cc(N4CCNCC4)ccc3n2)cc2cn(C)nc12	5.00 to 6.00
Cc1c(O)c(-c2ncc3nc(N4C[C@@H](C)N[C@@H](C)C4)ccc3n2)cc2cn(C)nc12	5.00 to 6.00
CC(C)N[C@@H]1CCN(c2ccc3nc(-c4cc5cn(C)nc5c(F)c4O)ccc3n2)C1 (single isomer, unassigned)	> 7.00
Cc1cn2nc(-c3ccc4cc(N5C[C@H](C)N[C@@H](C)C5)cc(F)c4n3)cc(C)c2n1 (single isomer, unassigned)	5.00 to 6.00
CNC(=O)c1nc(-c2cc3cn(C)nc3c(C)c2O)nc2ccc(N3CCNC4(CC4)C3)cc12	< 5.00
Cc1nc(-c2cc3cn(C)nc3c(C)c2O)nc2ccc(N3C[C@H](C)N[C@@H](C)C3)cc12 (single isomer, unassigned)	< 5.00
